Data origin: PubChem BioAssay (NCI)

# protocolDescription: NCI Yeast Anticancer Drug Screen. Data for the mec2-1 strain (AID 157)
# cond: S. cerevisiae mec2-1 strain, at 50.0 µM, hits give high values
This is part of a sample that, as a whole, favours compounds with a hit. Of some 79,000 tested, about 15% had one in any assay.
Returns one of rule met or rule not met; rule met when growth inhibition is >= 40%.

Observe how each entry below is paired with its result.
INSERT INTO results (compound, group) VALUES
  ('O=C(O)CC1(C(=O)O)CCCCC1', 'rule not met'),
  ('COc1ccc(C(=O)Cc2nc3nnc(NC(=O)Nc4ccc(Cl)cc4)n3nc2CC(=O)c2ccc(OC)cc2)cc1', 'rule met');

Query string: Is reported growth inhibition greater than or equal to 40% here: `C=CC(=O)NC(=O)Nc1ccc(Cl)cc1`
Result string: rule met

Query string: Is reported growth inhibition greater than or equal to 40% here: `CCOc1ccc2c(c1)nc1ccccc1[n+]2CC`
Result string: rule met

Query string: Is reported growth inhibition greater than or equal to 40% here: `ON=C1c2ccccc2-c2ccccc21`
Result string: rule not met

Query string: Is reported growth inhibition greater than or equal to 40% here: `COc1ccc(CN(C)c2c(C)ccc3ccccc23)cc1`
Result string: rule not met

Query string: Is reported growth inhibition greater than or equal to 40% here: COC(=O)CCC(NC(=S)N/N=C/c1ccccn1)C(=O)OC (stereo unspecified)
Result string: rule met

Query string: Is reported growth inhibition greater than or equal to 40% here: CCC[CH2][Sn]([CH2]CCC)([O]C(=O)C(OC(C)=O)c1ccccc1)[O]C(=O)C(OC(C)=O)c1ccccc1 (stereo unspecified)
Result string: rule met
